molecular target: Thromboxane A2 (TXA2) receptor (Oryctolagus cuniculus); construct: contraction by TXA2 mimics U-44069 or U-46619; assay: Thromboxane A2 (TXA2) receptor antagonism: inhibitory effect on contraction of rabbit aorta by TXA2-mimics; format: cell-based; settings: 10^-7 M; U-44069 (10^-7 M)-induced contraction
measurement.kind: inhibition at 0.1 µM (%)
Just the number please, in %, no unit attached.

Reference set (3 entries):
Cc1c(C)c(Cl)c(C)c(C(CCCCCC(=O)O)c2ccc(F)cc2)c1O (stereo not shown) [Compound 17]
12
Cc1c(C)c(Br)c(C)c(C(CCCCCC(=O)O)c2ccc(F)cc2)c1O (stereo not shown) [Compound 12]
12
Cc1c(O)c(C(CCCCCC(=O)O)c2ccc(F)cc2)c(C)c2c1CCC2 (stereo not shown) [Compound 21]
5

Exercise: Value lookup for inhibition at 0.1 µM; key = Cc1c(C)c(C=O)c(C)c(C(CCCCCC(=O)O)c2ccc(F)cc2)c1O (stereo not shown) [Compound 27]
Solution: 98

###

molecular target: specific [^3 H] U-46619 binding to guinea pig platelet membrane (Cavia porcellus, UniProt A0A286Y4I8)
Sequence (A0A286Y4I8 1-347): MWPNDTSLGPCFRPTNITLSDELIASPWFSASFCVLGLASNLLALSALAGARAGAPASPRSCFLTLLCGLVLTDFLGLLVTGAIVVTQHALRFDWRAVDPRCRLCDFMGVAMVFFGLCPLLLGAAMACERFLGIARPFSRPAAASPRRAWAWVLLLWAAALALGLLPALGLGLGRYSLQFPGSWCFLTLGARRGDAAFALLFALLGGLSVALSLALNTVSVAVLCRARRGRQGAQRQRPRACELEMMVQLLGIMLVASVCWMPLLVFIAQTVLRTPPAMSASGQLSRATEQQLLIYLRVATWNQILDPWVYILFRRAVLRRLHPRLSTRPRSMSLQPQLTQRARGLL
measurement.kind: log10(IC50) (log10 of the value in nM)
Quick note: numbers are log10 of IC50, with nM as the unit.

Cc1c(C)c2c(c(C(CCCCCC(=O)O)c3ccc(F)cc3)c1O)CCC2=O (stereo not drawn)
1.11

Exercise: Value lookup for log10(IC50); key = Cc1c(O)c(C(CCCCCC(=O)O)c2ccc(F)cc2)c(C)c2c1CCC2 (stereo not drawn)
Solution: 1.69

Exercise: Value lookup for log10(IC50); key = Cc1c(C)c(CO)c(C)c(C(CCCCCC(=O)O)c2ccc(F)cc2)c1O (stereo not drawn)
Solution: 1.51

Exercise: Value lookup for log10(IC50); key = Cc1c(C)c(Cc2ccccc2)c(C)c(C(CCCCCC(=O)O)c2ccc(F)cc2)c1O (stereo not drawn)
Solution: 2.20

Exercise: Value lookup for log10(IC50); key = Cc1c(C)c(Br)c(C)c(C(CCCCCC(=O)O)c2ccc(F)cc2)c1O (stereo not drawn)
Solution: 2.30

Exercise: Value lookup for log10(IC50); key = Cc1c(C)c2c(c(C(CCCCCC(=O)O)c3ccc(F)cc3)c1O)CCC2 (stereo not drawn)
Solution: 2.20

###

molecular target: Thromboxane A2 (TXA2) receptor (Oryctolagus cuniculus, UniProt Q6WQI8); construct: contraction by TXA2 mimics U-44069 or U-46619; assay: Thromboxane A2 (TXA2) receptor antagonism: inhibitory effect on contraction of rabbit aorta by TXA2-mimics; assay type: cell-based; conditions: 10^-6 M; U-44069 (10^-7 M)-induced contraction
Sequence (Q6WQI8 1-233): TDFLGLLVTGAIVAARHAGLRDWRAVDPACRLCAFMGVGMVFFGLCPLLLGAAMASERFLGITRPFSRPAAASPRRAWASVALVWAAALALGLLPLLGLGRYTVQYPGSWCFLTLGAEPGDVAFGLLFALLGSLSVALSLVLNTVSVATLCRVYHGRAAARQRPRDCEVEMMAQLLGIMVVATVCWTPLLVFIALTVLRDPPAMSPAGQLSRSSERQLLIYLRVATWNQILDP
inhibition at 1 µM overview
Just the number please, in %, no unit attached.

Reference set (5 entries):
Cc1c(C)c(C)c(C(CCCCCC(=O)O)c2ccc(F)cc2)c(O)c1C (stereo not drawn)
27
Cc1c(C)c(Cl)c(C)c(C(CCCCCC(=O)O)c2ccc(F)cc2)c1O (stereo not drawn)
98
Cc1c(O)c(C(CCCCCC(=O)O)c2ccc(F)cc2)c(C)c2c1CCC2 (stereo not drawn)
99
Cc1cc(C)c(O)c(C(CCCCCC(=O)O)c2ccc(F)cc2)c1C (stereo not drawn)
56
Cc1c(C)c(Br)c(C)c(C(CCCCCC(=O)O)c2ccc(F)cc2)c1O (stereo not drawn)
79

Exercise: Give recorded inhibition at 1 µM with Thromboxane A2 (TXA2) receptor (Oryctolagus cuniculus, UniProt Q6WQI8) for the following molecule: Cc1c(C)c2c(c(C(CCCCCC(=O)O)c3ccc(F)cc3)c1O)CCC2 (stereo not drawn)
Solution: 45

Where these numbers come from: patent US5162571A
